Lab note: IC50 readings collected with 3-hydroxy-3-methyl-glutaryl CoA reductase (Rattus norvegicus) for the following compounds.
Sequence (P51639 whole entry): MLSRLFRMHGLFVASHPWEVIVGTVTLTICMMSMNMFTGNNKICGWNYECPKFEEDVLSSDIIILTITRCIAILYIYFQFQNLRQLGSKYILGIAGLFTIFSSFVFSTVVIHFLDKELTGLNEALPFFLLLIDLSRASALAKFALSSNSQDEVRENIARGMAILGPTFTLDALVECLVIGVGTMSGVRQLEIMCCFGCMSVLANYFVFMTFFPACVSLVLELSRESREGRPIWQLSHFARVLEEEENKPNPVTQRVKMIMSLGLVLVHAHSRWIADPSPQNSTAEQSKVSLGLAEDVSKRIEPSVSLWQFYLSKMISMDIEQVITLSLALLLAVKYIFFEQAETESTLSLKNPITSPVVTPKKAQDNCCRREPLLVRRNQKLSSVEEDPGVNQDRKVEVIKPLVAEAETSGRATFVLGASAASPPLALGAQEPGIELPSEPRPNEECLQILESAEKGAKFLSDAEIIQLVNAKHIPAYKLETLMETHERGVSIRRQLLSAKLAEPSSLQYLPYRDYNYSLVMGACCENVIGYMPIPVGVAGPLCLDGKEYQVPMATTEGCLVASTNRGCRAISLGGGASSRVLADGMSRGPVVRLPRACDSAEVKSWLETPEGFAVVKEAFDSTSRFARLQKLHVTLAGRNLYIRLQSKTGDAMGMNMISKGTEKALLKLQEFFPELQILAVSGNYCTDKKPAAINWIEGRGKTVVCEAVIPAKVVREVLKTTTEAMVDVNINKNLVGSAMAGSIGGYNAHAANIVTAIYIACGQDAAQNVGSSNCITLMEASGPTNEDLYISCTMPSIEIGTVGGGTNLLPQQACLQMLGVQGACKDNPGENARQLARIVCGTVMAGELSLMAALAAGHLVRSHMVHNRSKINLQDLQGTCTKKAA
property: IC50 (nM)

Use the examples below as a reference point.
CCC(C)C(=O)OC1CCC(=NOC)C2=CC(=O)C(C)C(CCC(O)CC(O)CC(=O)O)C21 (stereo not drawn) [Compound B, reference compound] | 39.5
CCC(C)C(=O)OC1CCC(=NOCc2ccc([N+](=O)[O-])cc2)C2=CC(=O)C(C)C(CCC(O)CC(O)CC(=O)O)C21 (stereo not drawn) [Example 4b] | 21
CCC(C)C(=O)OC1CCC(=NOCc2ccco2)C2=CC(=O)C(C)C(CCC(O)CC(O)CC(=O)O)C21 (stereo not drawn) [Example 11b] | 36
CCC(C)C(=O)OC1CCC(=NOCc2cccnc2)C2=CC(=O)C(C)C(CCC(O)CC(O)CC(=O)O)C21 (stereo not drawn) [Example 10b] | 31.4

I = CCC(C)C(=O)OC1CCC(=NO)C2=CC(=O)C(C)C(CCC(O)CC(O)CC(=O)O)C21 (stereo not drawn) [Compound A, reference compound]
II = CCC(C)C(=O)OC1CCC(=NOCC=C(C)C)C2=CC(=O)C(C)C(CCC(O)CC(O)CC(=O)O)C21 (stereo not drawn) [Example 17b]
QUERY: Just curious, which one has the larger IC50 reading, I or II ? Selection: enter the item's label.
RESULT: I
(I: 35.7 nM, II: 21.3 nM)
